# EXPERIMENTAL_TARGET: T1, human CD47 (human, UniProt Q08722 19-323)
# T1 construct: whole, on cells; also called CD47 on human red blood cells
# T1 sequence (Q08722 19-323): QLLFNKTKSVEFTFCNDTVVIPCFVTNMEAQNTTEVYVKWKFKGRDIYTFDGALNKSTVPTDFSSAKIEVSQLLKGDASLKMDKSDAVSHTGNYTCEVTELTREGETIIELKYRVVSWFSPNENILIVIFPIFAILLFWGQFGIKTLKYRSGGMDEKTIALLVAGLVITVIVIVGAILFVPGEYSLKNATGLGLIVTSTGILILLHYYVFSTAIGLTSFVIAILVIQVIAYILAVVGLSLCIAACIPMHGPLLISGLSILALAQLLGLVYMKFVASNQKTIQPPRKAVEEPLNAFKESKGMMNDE
# METHOD_SUMMARY: flow cytometry on RBCs, antibody 10 ng/ml
// values below are reported mean fluorescence relative to chimeric antibody
EXPERIMENTAL_ENDPOINT: mean fluorescence relative to chimeric antibody

BINDER	RESULT
pVxK7b-037-hum20-LC/pVxK7b-037-hum20-HC (antibody, human IgG1, V domains shown, Full-length human IgG1/kappa in CHO supernatant; Variable entries end within framework 4 (...FGQG / ...WGQG); also called Clone 20) VH: QITLKESGPTLVKPTQTLTLTCTFSGYTFTNYYVFWVRQAPGQGLEWMGDINPVNGDTNFNEKFKNRVTITADKSTSTAYMELSSLRSEDTAVYYCARGGYTMDYWGQG VL: DIVMTQTPLSLPVTPGEPASISCRSSQSLVHSNGNTYLHWYLQKPGQSPQLLIYKVSYRFSGVPDRFSGSGSGTDFTLKISRVEAEDVGVYYCSQNTHVPRTFGQG	1.3 fold of chimera
pVxK7b-037-hum02-LC/pVxK7b-037-hum02-HC (antibody, human IgG1, V domains shown, Full-length human IgG1/kappa in CHO supernatant; Variable entries end within framework 4 (...FGQG / ...WGQG); also called Clone 2) VH: QVQLQESGPGLVKPSQTLSLTCTVSGYTFTNYYVFWVRQARGQRLEWIGDINPVNGDTNFNEKFKNRVTISADKSISTAYLQWSSLKASDTAMYYCARGGYTMDYWGQG VL: DVVMTQSPLSLPVTLGQPASISCRSSQSLVHSNGNTYLHWYQQKPGQAPRLLIYKVSYRFSGVPSRFSGSGSGTEFTLTISSLQPDDFATYYCSQNTHVPRTFGQG	1 fold of chimera
